// values below are reported half-life
Assay: Half life in dog at 0.02 to 0.5 mg/kg, po
Format: ADME, organism-based, Canis lupus familiaris
Set-up: dose 0.02-0.5 mg/kg, route oral
Details: in vivo

sample_smiles: COc1cc(Cl)cc(C(=O)Nc2ccc(Cl)cn2)c1NC(=O)c1ccc(N2CCCCC2=O)cc1
half-life, h: 1.5
--
sample_smiles: COc1cc(Cl)cc(C(=O)Nc2ccc(Cl)cn2)c1NC(=O)c1ccc(-n2ccccc2=O)cc1
half-life, h: 0.7
--
sample_smiles: COc1cc(Cl)cc(C(=O)Nc2ccc(Cl)cn2)c1NC(=O)c1ccc(-n2ccccc2=O)nc1
half-life, h: 1.6
--
sample_smiles: COc1ccc(-n2nc(C(N)=O)c3c2C(=O)N(c2ccc(N4CCCCC4=O)cc2)CC3)cc1
half-life, h: 5.8
--
sample_smiles: COc1cc(Cl)cc(C(=O)Nc2ccc(Cl)cn2)c1NC(=O)c1ccc(-n2ccccc2=O)cc1F
half-life, h: 0.7
